# measuredTarget: T1, PUF4 RNA-binding domain (Saccharomyces cerevisiae, UniProt P25339 537-888)
# T1 sequence: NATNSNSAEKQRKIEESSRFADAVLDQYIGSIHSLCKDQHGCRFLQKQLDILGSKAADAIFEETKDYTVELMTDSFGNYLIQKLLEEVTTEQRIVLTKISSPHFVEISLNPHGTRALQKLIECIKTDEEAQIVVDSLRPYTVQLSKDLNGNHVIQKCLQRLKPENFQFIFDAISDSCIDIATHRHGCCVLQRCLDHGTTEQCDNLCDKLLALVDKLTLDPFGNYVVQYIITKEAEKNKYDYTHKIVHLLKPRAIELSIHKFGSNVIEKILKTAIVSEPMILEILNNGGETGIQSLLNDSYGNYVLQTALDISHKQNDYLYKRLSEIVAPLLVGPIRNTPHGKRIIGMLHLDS
# protocolSummary: Mg; RNA-MaP; 20 mM Na-HEPES pH 7.4, 30 mM KOAc, 0.75 mM MgCl2, 0.1% Tween-20, 5% glycerol, 0.1 mg/mL BSA, 2 mM DTT; 25 C; 0.0125-409.6 nM protein
# testContext: tags: N-His6-TEV cleaved; C-SNAP kept, Cy3B-labelled; label: tethered on chip by stalled RNA polymerase
recordedEndpoint: Kd (nM)

binder	valueUnits	observed
ACAAACUGCUAUAUUAACAAAC (ssRNA) [Ie_S3_P4E.1_K4.1_C4.1_H4.1_[+2C]_A4.1_F4.1_T4.1]	nM	672
UCUCUUUGUAUUCCAUCUCUU (ssRNA) [Ic_S1_P4E.1_K4.1_C4.1_H4.1_A4.1_[A6T]_[T7C]_F4.1_[T8C]_T4.1]	nM	454
Ib_S2_P3E.1_K3.1_C3.1_H3.1_[A4C]_A3.1_F3.1_[A8C]_T3.1 (ssRNA) RNA: UUUGAUUAAUAUGAUAUCGUUCUUUCUUGUCUAUCUUCUUUCUCGAUAUCAUAUUAAUCUUU	nM	2130
Id_ii_S2_P4E.3_K4.2_C4.2_[T-1A]_H4.2_A4.1_F4.1_T4.2_[G10A]_[T11C] (ssRNA) RNA: UUUGAUUAAUAUGAUAUCGUUCUUUCUCAUAUAUAUUAACUUCUUUCUCGAUAUCAUAUUAAUCUUU	nM	17.8
Id_iii_S2_P3E.6_K3.2_C3.3_H3.2_A3.1_F3.1_T3.2_[T9C] (ssRNA) RNA: UUUGAUUAAUAUGAUAUCGUUCUUUCUUCUUAUAUAUACAUUCUUUCUCGAUAUCAUAUUAAUCUUU	nM	168
Ic_S4_P4E.1_K4.1_C4.1_H4.1_A4.1_[T5C]_[T7A]_F4.1_[T8G]_[A9C]_T4.1 (ssRNA) RNA: UUUGACAACUGAUCGUUCUUUCUUGUACAAGCUUCUUUCUCGAUCAGUUGUCUUU	nM	700
